Tested on: RXF-631 renal
Assay: NCI tumour cell line growth inhibition, 48 h
TGI values by entry

# compound, tested_target, TGI
records = [
    ("CC1=C(c2cc(C(=O)Nc3ccc(Cl)cc3)nc(=S)[nH]2)Sc2ccccc2N1", "RXF-631 renal", "> 100 µM"),
    ("CCOC(=O)/C(=C/c1cccc(C#N)c1)N(CC)CC", "RXF-631 renal", "> 100 µM"),
    ("CC(C)(C)OC(=O)N1N=NC2C1C1CC(OCc3ccccc3)(OCc3ccccc3)C2O1 (centres undefined)", "RXF-631 renal", "> 100 µM"),
    ("COc1cc(CC(C)N)ccc1O (centres undefined)", "RXF-631 renal", "> 100 µM"),
    ("N#CC(C(=O)CCC(=O)Nc1cccc(C(F)(F)F)c1)c1ccc(Cl)cc1 (centres undefined)", "RXF-631 renal", "> 100 µM"),
    ("O=C(O)CN(c1ccccc1)S(=O)(=O)c1ccc([N+](=O)[O-])cc1", "RXF-631 renal", "> 100 µM"),
    ("O=C1c2cccc(NCCNCCO)c2C(=O)c2cccc(NCCNCCO)c21", "RXF-631 renal", "16.4 µM"),
    ("O=C(O)CSc1n[nH]c(Cc2ccccc2)n1", "RXF-631 renal", "> 100 µM"),
    ("COc1cc(C(=O)N2CCc3c([nH]c4c([N+](=O)[O-])c(OC)ccc34)C2C)cc(OC)c1OC (centres undefined)", "RXF-631 renal", "> 100 µM"),
]

* * *

Tested on: SR leukemia
Assay: NCI tumour cell line growth inhibition, 48 h

# compound, readout_qualifier, TGI, µM
records = [
    ("COc1ccc2c(c1)C(C)Cc1c(ncnc1-n1cnc3cc(C)ccc31)N2C (stereo not given)", "=", 11.1),
    ("COc1ccc(N=NC(=Nc2ccc(F)cc2)c2ccc(N(CCC#N)CCC#N)cc2)cc1", ">", 100),
    ("COc1ccc(/C=N/N2C(=O)c3c(N)c(C#N)c(-c4ccccc4)c(-c4ccccc4)c3C2=O)cc1", ">", 100),
    ("O=C(N/N=C/c1ccc([N+](=O)[O-])o1)c1ccc(O)cc1", ">", 100),
    ("O=C(CNCc1ccccc1)Oc1c(Cl)c(Cl)c(Cl)c(Cl)c1Cl", "=", 47.9),
    ("CCCCCc1ccc(S(=O)(=O)Nc2cc(-c3csc(NC(C)=O)n3)ccc2N2CCN(C)CC2)cc1", "=", 2.77),
    ("COC(=O)C1=C(C)NC(C)=C([N+](=O)[O-])C1c1cccc(N=O)c1 (stereo not given)", ">", 100),
    ("Cn1cc(-c2ccc(-c3cncc(Cl)c3N3CCC4(CCNC4=O)CC3)cc2)cn1", "=", 21.2),
    ("Cc1cn2c(C)csc2c1P(=O)(OC(C)C)OC(C)C", ">", 100),
]

* * *

System: SK-MEL-2 melanoma
Test: NCI tumour cell line growth inhibition, 48 h

# compound, tested_target, TGI
records = [
    ("CCC(=O)Nc1ccc(N=NN(C)C)cc1", "SK-MEL-2 melanoma", "> 100 µM"),
    ("O=c1c2ccccc2nc(-c2ccccc2)n1NC(=S)Nc1ccccc1", "SK-MEL-2 melanoma", "> 100 µM"),
    ("CCc1nc2cc3cccnc3c(Cl)c2[nH]c1=O", "SK-MEL-2 melanoma", "> 100 µM"),
    ("COc1ccc(-c2csc(NC(=O)CSc3nc(C)c(-c4ccccc4)n3Nc3ccccc3)n2)cc1", "SK-MEL-2 melanoma", "> 100 µM"),
    ("O=C1CC(Sc2nc3ccc(I)cc3c(=O)n2Cc2ccccc2)C(=O)NN1 (stereo unspecified)", "SK-MEL-2 melanoma", "31.8 µM"),
    ("CC(=O)OCCOCNC(=S)N/N=C/c1ccc(Br)s1", "SK-MEL-2 melanoma", "> 100 µM"),
    ("COP(=O)(OC)C12CCOCCN1c1ccccc1C2=O (stereo unspecified)", "SK-MEL-2 melanoma", "> 100 µM"),
    ("CC(O)CC(O)(C(F)(F)F)C(F)(F)F (stereo unspecified)", "SK-MEL-2 melanoma", "> 10 µM"),
    ("Nc1ccccc1SC1CC(=O)N(c2ccc(Cl)c(Cl)c2)C1=O (stereo unspecified)", "SK-MEL-2 melanoma", "> 100 µM"),
    ("CC[C@@]1(O)C(=O)OCc2c1cc1n(c2=O)Cc2c-1nc1cc(F)c(C)c3c1c2[C@@H](N)CC3", "SK-MEL-2 melanoma", "1.4 µM"),
    ("O=C1c2cccc(NCCNCCO)c2C(=O)c2cccc(NCCNCCO)c21", "SK-MEL-2 melanoma", "2.77 µM"),
]

* * *

Test system: COLO 205 colon
Experiment: NCI tumour cell line growth inhibition, 48 h

# molecule, TGI
rows = [
    ("Cc1cc2nc(-c3cc(C(C)(C)C)c(O)c(C(C)(C)C)c3)[nH]c2cc1C", "> 100 µM"),
    ("CC1(C)[C@@H](Cn2cnc3c(Cl)nc(N)nc32)CC[C@@]1(C)CO", "> 100 µM"),
    ("Nc1ccc2nc3n(c2c1)C(=O)c1ccccc1-3", "> 100 µM"),
    ("O=C1CSC(c2ccc(-c3nc4ccccc4s3)cc2)=N1", "> 100 µM"),
    ("N#Cc1ccc(OC(=O)Nc2ccc(Cl)c(Cl)c2)cc1", "11.4 µM"),
    ("CCN(CC)c1cc2oc3cc(N)cc(=N)c-3nc2cc1C", "3.95 µM"),
    ("NS(=O)(=O)c1ccc(NC(NC(=O)C(C(F)(F)F)C(F)(F)F)(C(F)(F)F)C(F)(F)F)cc1", "> 100 µM"),
    ("OCC(O)C(O)C(O)/C=N/Nc1nc(O)c(/C=C2\\C=Nc3ccccc32)[nH]1 (configuration not stated)", "> 100 µM"),
    ("Cc1ccc(Nc2nnc(-c3ccc4c(c3)OCO4)o2)c(C)c1", "> 100 µM"),
    ("O/C(=C\\c1nc2ccccc2nc1NC12CC3CC(CC(C3)C1)C2)c1ccc(Br)cc1", "> 10 µM"),
    ("CCOC(=O)Cn1c(=O)n(C)c(=O)c2c1ncn2Cc1ccccc1", "> 100 µM"),
    ("O=C(NO)c1ccc(CN(c2cnccn2)c2cnccn2)cc1", "8.17 µM"),
    ("CC1=C(c2cc(C(=O)Nc3ccc(Cl)cc3)nc(=S)[nH]2)Sc2ccccc2N1", "> 100 µM"),
    ("COc1ccc(N=C2C(=S)N(c3ccc(OC)cc3)/C(=N/S(=O)(=O)c3ccccc3)N2c2ccccc2)cc1", "24.8 µM"),
    ("S=C1CC(c2ccccc2)Sc2ccc(Cl)cc2N1 (configuration not stated)", "> 100 µM"),
    ("COC(=O)/C(=C\\c1ccc(N(CCC#N)CCC#N)cc1)NC(=O)c1cc([N+](=O)[O-])ccc1Cl", "> 100 µM"),
    ("CC(=O)OCCOCNC(=S)N/N=C/c1ccc(Br)s1", "> 100 µM"),
    ("CCCCN(CCCC)C(=C(C(Cl)=C(Cl)Cl)[N+](=O)[O-])N(CCCC)CCCC", "> 100 µM"),
    ("Cc1cccc(N=C2NC(=O)C(CC(=O)Nc3cccc(C)c3C)S2)c1 (configuration not stated)", "> 100 µM"),
    ("C=C1C(=O)OC2/C=C(/C)C3(O)OC(C)(CC(OC(=O)C(C)C)C12)CC3OC(C)=O (configuration not stated)", "18.1 µM"),
    ("NC(=O)c1ncn2c1NC(=O)CC2", "> 100 µM"),
    ("N#CC(C(=O)CCC(=O)Nc1cccc(C(F)(F)F)c1)c1ccc(Cl)cc1 (configuration not stated)", "> 100 µM"),
    ("[F][Sn]([F])([c]1ccccc1)[c]1ccccc1", "3.97 µM"),
    ("COc1ccc(N=Nc2c3c(c(O)c4ccccc24)CCC(C)(C)O3)cc1", "72.8 µM"),
    ("Cc1ncc([N+](=O)[O-])n1CCNS(=O)(=O)CCCn1ncnc1[N+](=O)[O-]", "> 100 µM"),
    ("c1ccc(C2=Nn3c(CCCCCCCCc4nnc5n4N=C(c4ccccc4)CS5)nnc3SC2)cc1", "> 100 µM"),
    ("Cc1cc2c(nn1)-c1ccccc1C2=O", "> 10 µM"),
    ("O=c1n(Cc2ccccc2)c(=O)n2c(=O)n(Cc3ccccc3)c(=O)n12", "> 100 µM"),
    ("Cc1cn([C@H]2C[C@](C)(CO)N(C)O2)c(=O)[nH]c1=O", "> 100 µM"),
    ("COc1ccc(-c2csc(NC(=O)CSc3nc(C)c(-c4ccccc4)n3Nc3ccccc3)n2)cc1", "> 100 µM"),
    ("CC(C)(C)c1ccc(OCC(=O)O)c(Cl)c1", "> 100 µM"),
    ("CC1C(=O)OC2CC[N+]3([O-])CC=C(COC(=O)C(C)(O)C1(C)O)C23 (configuration not stated)", "> 100 µM"),
    ("CC(C)C1=C2CCC3(C)C(CCC4C5C6OCC5(CCC6(C)C)CCC43C)C2(C)CC1 (configuration not stated)", "37.3 µM"),
    ("COC(=O)c1cc(/C=C/c2ccc(S(N)(=O)=O)cc2)ccc1O", "> 100 µM"),
    ("CCOC(=O)C1CN(C2CC2)CCC1=O (configuration not stated)", "> 100 µM"),
    ("S=C1SC2=Nc3ccccc3CN2C2=NCCN12", "> 100 µM"),
    ("O=C(Nc1ccc(-n2cc(-c3ccncc3)c(-c3ccc(O)c(Cl)c3)n2)cc1)Nc1cccc(Cl)c1Cl", "13 µM"),
    ("Cc1ccc(-c2c(C#N)c(-c3ccc([N+](=O)[O-])cc3)c(C#N)c(=O)n2NS(=O)(=O)c2ccccc2)cc1", "> 100 µM"),
    ("CCCOC(=O)NC(C)C(=O)NC(CCC(=O)NC(CCCC(N)C(=O)O)C(=O)NC(C)C(=O)O)C(=O)O (configuration not stated)", "48.7 µM"),
    ("COC1=C(Br)C(=O)c2nc(C)ccc2C1=O", "24.6 µM"),
    ("O=C(O)c1c2c(cc3c1CC1(Cc4ccccc4C1=O)C3)CCC2 (configuration not stated)", "54.6 µM"),
    ("O=C(CSC(c1ccccc1)c1ccccc1)N/N=C/c1ccco1", "52 µM"),
]
